Values were extracted from paper PMC6406258.

# Measurement Description: Hydrolysis of pro-drugs at biologically relevant pHs (half-lives)
# Format: physicochemical
# Condition Description: buffer; pH 6.0; read-out: Half-life (converted)
Measured Attribute: half-life (h)

P = C#CCOCCOCCOCCOCCn1cc(C(Nc2ccccc2NC(=O)c2ccc(NC(C)=O)cc2)(c2ccccc2)c2ccccc2)nn1 [Compound 7a]
Q = C#CCOCCOCCOCCOCCn1cc(C(Nc2ccccc2NC(=O)c2ccc(NC(C)=O)cc2)(c2ccc(C)cc2)c2ccc(C)cc2)nn1 [Compound 7b]
R = C#CCOCCOCCOCCOCCn1cc(C(ONC(=O)CCCCCCC(=O)Nc2ccccc2)(c2ccc(OC)cc2)c2ccc(OC)cc2)nn1 [Compound 6c]
Sequence the entries by half-life, beginning with the highest number. Please list the labels in the order you were asked to rank them. P, R, Q
(P: 48 h, R: 1.8 h, Q: 0.167 h)
